experiment: reducers of endogenous Her2 protein level, primary screen, SKBR3 breast tumor cells, AlphaScreen, ATP viability (AID 461); conditions: 18-24 h, measured here: SKBR3 viability, ATP luminescence, at 10 µM;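 also: percent of carrier control wells set as 100% viability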
Observed Property: viability

# count of solved cases: 2
| Molecule | viability |
| --- | --- |
| C=CCNC(=O)c1cc(-c2ccccc2O)on1 | 97% |
| CCOC(=O)c1cc2sc(C)cc2n1C(C)C(=O)OCC (stereo not drawn) | 97.5% |

Kindly review the next molecule as well.
Incoming: Given the molecule CCn1c(=O)n(CC(=O)N(C)Cc2ccccc2)c(=O)c2ccccc21 , write its reported viability.
Outgoing: 110%
